target: Cytochrome P450 3A4 (Homo sapiens) (UniProt P08684); assay: qHTS Assay for Inhibitors and Substrates of Cytochrome P450 3A4 (AID 884); conditions: recombinant CYP3A4, Luciferin-PPXE luminescence; series mostly up to 57.1 µM; also: nearly all actives have a fitted effect of over 50% in size
Sequence (P08684 whole entry, looked up): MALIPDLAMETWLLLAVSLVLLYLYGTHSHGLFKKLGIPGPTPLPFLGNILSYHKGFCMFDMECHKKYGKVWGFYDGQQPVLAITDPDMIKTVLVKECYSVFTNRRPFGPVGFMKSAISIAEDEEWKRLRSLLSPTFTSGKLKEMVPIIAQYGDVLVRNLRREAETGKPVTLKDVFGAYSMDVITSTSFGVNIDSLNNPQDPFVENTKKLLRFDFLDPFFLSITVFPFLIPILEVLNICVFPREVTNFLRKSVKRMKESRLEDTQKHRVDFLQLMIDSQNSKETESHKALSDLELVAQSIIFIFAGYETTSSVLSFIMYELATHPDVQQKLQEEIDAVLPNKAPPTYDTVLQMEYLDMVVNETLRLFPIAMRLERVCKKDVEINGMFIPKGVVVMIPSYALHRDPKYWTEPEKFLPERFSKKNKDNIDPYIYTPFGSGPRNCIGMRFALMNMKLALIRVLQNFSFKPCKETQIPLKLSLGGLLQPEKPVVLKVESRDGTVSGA
Results filed as inconclusive are left out. Activity calls are given as the source filed them. Calls follow the shape of the dose curve; as a rule, active = well fitted inhibition curve with a large enough effect; inconclusive = small, poorly fitted or top-dose-only effect; inactive = no such curve, though single readings can be large or run the other way.
Classes to choose from: active, inactive

Assay outcome for `Cn1cccc1C(=O)N1CCC2(CC1)CN(c1ccccn1)C2` : what was it? inactive

Assay outcome for `O=C(c1ccco1)N1CCC2(CCCN(Cc3ccncc3)C2)CC1` : what was it? active

Assay outcome for `COc1ccc2[nH]cc(CCNc3nc(-c4ccoc4)nc4ccccc34)c2c1` : what was it? active

Assay outcome for `O=C(c1cccc(F)c1)N1CCC2(CC1)CN(c1ccc(-c3ccccc3)cc1)C2` : what was it? inactive

Assay outcome for `Cn1cccc1C(=O)N1CCC2(CCN(Cc3nccs3)CC2)CC1` : what was it? inactive

Assay outcome for `O=C(c1ccncc1)N1CCC2(CCCN(Cc3ccncc3)C2)CC1` : what was it? active

Assay outcome for `CS(=O)(=O)Nc1cccc(-c2nc(NCc3cccs3)c3ccccc3n2)c1` : what was it? active

Assay outcome for `CN(Cc1ccco1)c1ncncc1-c1cccnc1` : what was it? active

Assay outcome for `Cc1cccc(CNc2ccnc(-c3ccc(C(=O)N(C)C)cc3)n2)c1` : what was it? inactive

Assay outcome for `Cc1cc(C)c(S(=O)(=O)Nc2ccccc2C(F)(F)F)c(C)c1` : what was it? active

Assay outcome for `CC(=O)NCCNc1nc(-c2ccccc2C)nc2ccccc12` : what was it? active

###

Molecular target: Cytochrome P450 2C19 (Homo sapiens) (UniProt P33261)
Sequence (P33261 whole entry, looked up): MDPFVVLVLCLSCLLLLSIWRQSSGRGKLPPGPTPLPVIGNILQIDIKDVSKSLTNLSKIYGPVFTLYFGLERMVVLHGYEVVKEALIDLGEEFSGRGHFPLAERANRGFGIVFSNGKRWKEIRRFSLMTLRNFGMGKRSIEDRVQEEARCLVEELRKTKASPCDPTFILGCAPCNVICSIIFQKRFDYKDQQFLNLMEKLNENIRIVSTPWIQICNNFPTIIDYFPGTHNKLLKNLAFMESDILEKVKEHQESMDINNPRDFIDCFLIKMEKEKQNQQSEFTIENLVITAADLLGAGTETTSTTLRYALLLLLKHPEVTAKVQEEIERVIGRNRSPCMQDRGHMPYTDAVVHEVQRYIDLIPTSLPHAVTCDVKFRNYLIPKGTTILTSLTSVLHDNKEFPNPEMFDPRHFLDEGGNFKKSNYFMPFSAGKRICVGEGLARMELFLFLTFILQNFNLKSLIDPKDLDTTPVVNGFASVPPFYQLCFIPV
Assay: qHTS Assay for Inhibitors and Substrates of Cytochrome P450 2C19 (AID 899); also: nearly all actives have a fitted effect of over 60% in size; also: potency is read from the fitted curve at half-maximal effect
Conditions: recombinant CYP2C19, luciferin-H EGE luminescence; series mostly up to 57.1 µM
Procedure: NIH Molecular Libraries Screening Centers Network [MLSCN] NIH Chemical Genomics Center [NCGC] The P450 gene superfamily is involved in the metabolism and clearance of xenobiotics. […] The luciferin is then measured by luminescence after the addition of a luciferase detection reagent. […] Inhibitors and some substrates limit the production of luciferin, and decrease measured luminescence. […]
Results filed as inconclusive are left out. Calls of active or inactive are those of the source. The call rests on the fitted dose curve; in most records, active means well fitted inhibition curve with a large enough effect; inconclusive means small, poorly fitted or top-dose-only effect; inactive means no such curve, though single readings can be large or run the other way.
Measured property: Potency

Answered examples (10):
- Query smiles: "FC(F)(F)c1cc(CN2CC[C@@]3(CCCNC3)C2)cc(C(F)(F)F)c1"
  Potency: "inactive"
- Query smiles: "CN(C)c1ccc(-c2cncnc2-n2ccnc2)cc1"
  Potency: "3.98 µM (active)"
- Query smiles: "COc1cc(=O)n(C)c2c(OC[C@@H](O)C(C)(C)O)cccc12"
  Potency: "inactive"
- Query smiles: "CN(C)c1ccc(-c2cncnc2N(C)Cc2ccco2)cc1"
  Potency: "0.251 µM (active)"
- Query smiles: "N#Cc1cccc(NC(=O)N2CC3(CCN(C(=O)c4cc(C(F)(F)F)cc(C(F)(F)F)c4)CC3)C2)c1"
  Potency: "0.631 µM (active)"
- Query smiles: "CCN1CCC[C@@H]1CNC(=O)c1cc(S(N)(=O)=O)ccc1OC"
  Potency: "inactive"
- Query smiles: "COc1cccc(-c2cncnc2NCc2cccnc2)c1"
  Potency: "0.316 µM (active)"
- Query smiles: "COc1ccccc1CN1CC2(CCN(S(=O)(=O)c3ccccc3)CC2)C1"
  Potency: "inactive"
- Query smiles: "COc1ccccc1CCn1c(=O)c(-c2cccs2)nc2cncnc21"
  Potency: "2 µM (active)"
- Query smiles: "c1ccc(C(c2ccccc2)N2CCC3(CCNCC3)CC2)cc1"
  Potency: "3.98 µM (active)"

// below: Potency requested for another compound
// returns reported Potency for input `O=C(Oc1ccccc1)N1CCC[C@@]2(CCN(c3ccccn3)C2)C1` 5.01 µM (active)
